Each recorded value in this set is attributed to PubChem BioAssay AID488841.

Assay: yeast NALP1 reporter signal suppression – S. cerevisiae, luminescence, single concentration, NALP1 inhibitor project, confirmation (AID 488841);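 further: plate controls were DMSO in galactose medium for no effect and cells in plain SD medium for full effect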
Conditions: S. cerevisiae NALP1/ASC/Caspase-1 reporter, beta-gal luminescence; at 10 µM; active compounds read high
The campaign covered roughly 1,400 compounds. About 380 (27%) were called active. The list shows a part of the results.
inhibition class ranges: label 0 (below 30%), label 1 (30% to below 40%), label 2 (40% or more)

• CC1(C)NC(=O)N(CCCCOc2ccc3ccccc3c2Cl)C1=O = label 1
• Cn1nc(-c2ccc(Cl)cc2)nc2c(=O)n(C)c(=O)nc1-2 = label 2
• Cc1ccc(NC(=O)CN(C)C(=O)COc2cccc3cccnc23)cc1 = label 0
• Nc1ccc(C(=O)c2cccs2)cc1 = label 2
• COc1ccc(Cl)cc1C(=O)O/N=C(\N)c1ccc(Cl)cc1 = label 1
• Oc1c(Cl)cc(Cl)c(Cl)c1Cc1c(O)c(Cl)cc(Cl)c1Cl = label 2
• O=C(N/N=C/c1cc2c3c(c1O)CCCN3CCC2)c1ccccc1O = label 0
• Cc1cccc(/C(N)=N/OC(=O)c2ccc(Cl)cc2Cl)c1 = label 0
• C(#Cc1ccc(C#CCN2CCCC2)cc1)CN1CCCC1 = label 0
• Oc1c(Cl)cc(Cl)c2c1NCCC2 = label 2
• Cc1cccc(/C(N)=N/OC(=O)c2cccc3ccccc23)c1 = label 0

---

Experiment: yeast NALP1 reporter signal suppression – S. cerevisiae, luminescence, single concentration, NALP1 inhibitor project, confirmation (AID 488841)
Settings: S. cerevisiae NALP1/ASC/Caspase-1 reporter, beta-gal luminescence; at 10 µM; active compounds read high
About 380 (27%) of roughly 1,400 compounds were called active. This is one part of the list.
Recorded metric: inhibition

- CCC(=O)c1ccc(OCC(O)CN2CCN(c3cccc(C(F)(F)F)c3)CC2)cc1 (stereo not drawn): 49.5% (inactive)
- Cc1nc([N+](=O)[O-])c(Br)n1CC(=O)c1ccc(Cl)cc1: 37.6% (inactive)
- CC(C)CN=Cc1c(O)c([N+](=O)[O-])cc2oc3c(c12)CCCC3: 35.5% (inactive)
- CC(C)(C)C1=CC(=O)C(=O)C(C(C)(C)C)=C1: 20% (inactive)
- O=[N+]([O-])c1ccc(OCC(O)CN2CCN(c3ccccc3F)CC2)cc1 (stereo not drawn): 55.2% (active)
- COc1ccc2cc(C(C)c3nc4ccccc4c(=O)n3N)ccc2c1 (stereo not drawn): 53.1% (active)
- Cc1cc(C)n(C(C[N+](=O)[O-])c2ccc(Cl)cc2)n1 (stereo not drawn): 92% (active)
- COc1cc2nc(Cl)nc(N3CCN(C)CC3)c2cc1OC: 39.5% (inactive)
- O=S(=O)(Nc1ccncc1Cl)c1ccccc1: 27.6% (inactive)
- Cc1ccc(NC(=O)CSC2=Nc3ccccc3C3CC=NN23)c(C)c1 (stereo not drawn): 41.9% (inactive)
- CN(Cc1ccccc1)c1ncnc2c1cnn2-c1ccccc1: 49.5% (inactive)
- CCSc1nnc(-c2ccncc2)n1Cc1ccccc1: 35.8% (inactive)
- O=C(NC1CCCC1)C(c1ccccn1)N(C(=O)c1csnn1)C1CC1 (stereo not drawn): 18.6% (inactive)
- COC(=O)c1ccc(Cn2cnc3c(cnn3-c3ccc(Cl)cc3)c2=O)o1: 34.6% (inactive)
- CCOC(=O)N1CCN(CC(O)COc2ccccc2C(C)(C)C)CC1 (stereo not drawn): 42.4% (inactive)
- CC[n+]1c(/C=C/c2ccc(N(C)C)cc2)ccc2ccccc21: 85.5% (active)
- C=CCCCCc1nc2ccccc2c(=O)n1N: 33% (inactive)
- COc1ccc(CCn2c(C(C)C)nc3c(c(=O)c4ccccc4n3C)c2=O)cc1: 25.9% (inactive)
- CCN1CCN(c2cc(C(C)C)nc3c(-c4ccccc4)c(C)nn23)CC1: 40.4% (inactive)
- CCN(C(=O)[C@@H]1CCCN1C(=O)c1cccs1)c1nc2cc(Cl)ccc2s1: 46.8% (inactive)
- CC1=NNC(=O)/C1=C\c1cn(-c2ccccc2)nc1-c1cccs1: 62.4% (active)
- OC(COc1ccc2c(c1)CCC2)CN1CCN(c2ccccc2F)CC1 (stereo not drawn): 73.8% (active)
- O=C(Cn1cccc(C(F)(F)F)c1=O)c1ccc(Cl)cc1: 22% (inactive)

---

Assay: yeast NALP1 reporter signal suppression – S. cerevisiae, luminescence, single concentration, NALP1 inhibitor project, confirmation (AID 488841);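 further: plate controls were DMSO in galactose medium for no effect and cells in plain SD medium for full effect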
Settings: S. cerevisiae NALP1/ASC/Caspase-1 reporter, beta-gal luminescence; at 10 µM
About 380 (27%) of roughly 1,400 compounds were called active.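 The calls were made as follows: active = mean inhibition above 50% across duplicate retests at 10 µM; inactive = the rest.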 Some of the results follow.
Outcomes: active, inactive

* CN(C)CCCN(C(=O)c1ccc2c(c1)CCCC2)c1nc2ccc(F)cc2s1 | active
* O=S(=O)(NC1CCCCC1)c1ccc(F)c2ccccc12 | active
* CC1CCN(CCOc2ccc(Cl)c(Cl)c2)CC1 | inactive
* COc1cc(C=O)ccc1Oc1nnnn1-c1ccccc1 | inactive
* COc1ccc(/C=C2\COc3ccccc3C2=O)cc1OC | active
* O=C1/C(=C/c2ccco2)Cc2ccccc21 | inactive
* COc1ccc(/C=C2/CCc3ccccc3C2=O)cc1OC | active
* COc1ccc(C2=C/C(=C/c3cccnc3)C(=O)O2)cc1OC | inactive
* Cc1cc(=O)n2ccccc2c1C#N | inactive
* CN(C)CCCN(C(=O)c1sc2ccccc2c1Cl)c1nc2ccc(F)cc2s1 | inactive
* O=C1/C(=C/c2ccccc2)CCCc2ccccc21 | active
* COc1cc2ccccc2c2c1CCCC2=O | inactive

---

Assay: yeast NALP1 reporter signal suppression – S. cerevisiae, luminescence, single concentration, NALP1 inhibitor project, confirmation (AID 488841);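 further: plate controls were DMSO in galactose medium for no effect and cells in plain SD medium for full effect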
Details: S. cerevisiae NALP1/ASC/Caspase-1 reporter, beta-gal luminescence; at 10 µM
The whole screen tested about 1,400 compounds, of which about 380 (27%) were called active.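 The calls were made as follows: active = mean inhibition above 50% across duplicate retests at 10 µM; inactive = the rest.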 The list shows a part of the results.
Outcomes: label 1 = active, label 0 = inactive

* Cc1ccccc1OCC(=O)Nc1sc2c(c1C#N)CCC2 | label 0
* C=CCNC(=S)N/N=C(\C)c1ccccn1 | label 1
* C=CCNCCOCCSc1ccc(Cl)cc1 | label 0
* CCOC(=O)Nc1cccc(Nc2ccccc2)c1 | label 1
* COCCCNCCOc1cc(C(C)C)ccc1C | label 0
* c1ccc(-c2nc3cc4ccccc4cc3[nH]2)nc1 | label 1
* COC(=O)C(Cc1ccccc1)NC(=O)COc1ccc(C(C)(C)C)cc1 (centres undefined) | label 0
* O=C(N/N=C/c1cc(Cl)ccc1O)c1ccc(Br)cc1 | label 0
* O=[N+]([O-])c1ccc2nc(-c3ccccn3)[nH]c2c1 | label 0
* CCCNC(=O)c1cc2c3ccccc3n(C)c2s1 | label 1
* Cc1ccc(C(=O)NCCCNc2ccc(C(F)(F)F)cc2[N+](=O)[O-])cc1 | label 0
* COCCCNCCOc1ccc(C(C)(C)c2ccccc2)cc1 | label 1
* COC(=O)c1c(NC(=O)C2CCCO2)sc2c1CCC2 (centres undefined) | label 0
* C=CCc1cc(Cl)ccc1OCCNCCCOC | label 0
* COc1ccc(C(=O)NCc2ccccc2)cc1S(=O)(=O)N1CCCc2ccccc21 | label 0
* COc1ccc(OC)c(/C=c2\sc3nc(-c4cccs4)nn3c2=O)c1 | label 0
* COC(=O)c1c(NC(NC(=O)C(C)C)C(Cl)(Cl)Cl)sc2c1CCC2 (centres undefined) | label 0
* CCOC(=O)c1sc(NC(=O)Nc2cccc(Cl)c2)cc1C | label 0
* O=C(NCc1cccnc1)C1CCN(S(=O)(=O)c2cccnc2)CC1 | label 0

---

Assay: yeast NALP1 reporter signal suppression – S. cerevisiae, luminescence, single concentration, NALP1 inhibitor project, confirmation (AID 488841);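 further: plate controls were DMSO in galactose medium for no effect and cells in plain SD medium for full effect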
Details: S. cerevisiae NALP1/ASC/Caspase-1 reporter, beta-gal luminescence; at 10 µM; active compounds read high
The whole screen tested about 1,400 compounds, of which about 380 (27%) were called active. Some of the results follow.
Recorded metric: inhibition (%)

• CCOC(=O)N1CCN(c2ccc(Cl)c(Cl)c2)CC1 = 60.3
• CCc1ccc(OCC(=O)Nc2ccc(CN3CCCCC3)cc2)cc1 = 48.2
• C#CCOc1c(Br)cc(/C=N/O)cc1OCC = -19.1
• CCn1c(SCC(=O)Nc2oc(-c3ccccc3)c(-c3ccccc3)c2C#N)nnc1-c1cc(OC)cc(OC)c1 = 22.6
• O=C(COc1ccc(Br)cc1Br)NC(=S)Nc1cccc(CO)c1 = 29.1
• CCOC(=O)COc1ccccc1/C=C\[N+](=O)[O-] = 101
• O=S(=O)(Nc1ccc(Oc2ncccn2)c(Cl)c1)c1ccc(F)cc1 = 23
• O=C(CCc1nc2ccccc2s1)Nc1ccccc1 = 77.9
• CCCOc1ccc(C(=O)c2nc3c(n2O)CCCCC3)cc1 = 22.7
• CCCOc1ccc(C(=O)C(CN2CCCC2)c2ccccc2)cc1 (configuration not stated) = 50.8
• CC1CCN(C(=O)/C=C/c2ccc(C(C)(C)C)cc2)CC1 = 54.6
• Cc1cc(C)c(S(=O)(=O)Nc2cc(SCC(=O)O)c(O)c3ccccc23)cc1C = 22.2
• O=C(O)CC(Cn1cnnn1)c1ccccc1 (configuration not stated) = 25.9
• COc1ccc(C2=NN3C(=O)c4c(ccc(OC)c4OC)C3C2)cc1 (configuration not stated) = 37.6
• CCCCC(C(=O)NC1CCCC1)N(Cc1ccco1)C(=O)Cn1nnc(-c2ccc(F)cc2)n1 (configuration not stated) = 27.3
• Cc1sc(N)nc1-c1ccc(Oc2ccccc2)cc1 = 61.1
• c1ccc(Nc2ccccn2)cc1 = 27.3
• COc1cc(C(=O)CCN2CCC(c3ccccc3)C2)cc(OC)c1OC (configuration not stated) = 41
• CCOC(=O)N1CCN(c2c(NCCOC)c(=O)c2=O)CC1 = 26.4
• O=C1CN(c2nnnn2-c2ccccc2)CCN1 = 35
• CN1CCN(C(=S)Nc2ccc(Cl)c(Cl)c2)CC1 = 24.9
• O=C(/C=C/c1ccccc1)N1CCC(c2ccccc2)C1 (configuration not stated) = 54
• Nc1nc(-c2ccco2)nn1S(=O)(=O)c1ccccc1 = 23.4
• CC(C)(C)c1cc2cccnc2n1Cc1cccc(Cl)c1 = 35.9
• Cc1cc(N2C(=O)C=CC2=O)c([N+](=O)[O-])cc1C = 41.7
• Nc1nc2ccc(Oc3ccccc3)cc2s1 = 88.2
• CCOC(=O)c1c(C)n(C)c2cc(-c3ccc(C)cc3)c(O)cc12 = 24.9
• COC(=O)N/N=C(\C)c1ccc2ccccc2c1OC(F)F = 55.9
• CCOc1ccc(C(=O)C(CN2CCOCC2)c2ccccc2)cc1 (configuration not stated) = 51.9
• CCOC(=O)CNC(c1ccccc1)c1cc(Br)ccc1NC(=O)CCN1CCOCC1 (configuration not stated) = 27.6
• CCN(CC)c1ccc(/C=N/OC(C)C(=O)Nc2ccc(C)cc2)cc1 (configuration not stated) = 41
• O=C(/C=C/c1ccccc1Cl)c1ccc[nH]1 = 73
• c1ccc(COc2ccc(OCCN3CCCCC3)cc2)cc1 = 35.1
• O=C(CC(O)(C(F)(F)F)C(F)(F)F)Nc1ccc(Cl)c(Cl)c1 = 98.8
• COc1ccc(OC)c(S(=O)(=O)Nc2ccc(O)c3ccccc23)c1 = 32.9
• O=c1cc(-c2ccccc2)[nH]c2nc3ccccc3n12 = 39.5
• COc1cc(C2SCC(=O)N2CCCN(C)C)cc(OC)c1OC (configuration not stated) = 17.5
• O=C1CSC(=S)N1c1ccc(O)cc1 = 95.2
• COC1=C(N)C(=O)c2nc(-c3nc(C(=O)O)c(C)c(-c4ccc(OC)c(OC)c4O)c3N)ccc2C1=O = 33.7
• Cc1cccc(OC(=O)c2cn(C)nc2C(F)(F)F)c1C = 43.7
• Cc1oc(C(=O)O)cc1COc1ccc2c3c(c(=O)oc2c1)CCC3 = 14.6
• O=C1C(Cl)=C(N2CCN(c3ccccc3[N+](=O)[O-])CC2)C(=O)c2ccccc21 = 47.2
• CCC(C(=O)NCc1ccco1)N(C(=O)CNS(=O)(=O)c1ccccc1)c1ccc(OC)cc1 (configuration not stated) = 23.4
• Cc1c(C(=O)N2CCOCC2)[nH]c2ccc(OCc3ccccc3)cc12 = 29.4
• COCc1cc(=O)[nH]c(/N=C(\N)Nc2cccc(C)c2)n1 = 21.6
• O=C(CSC1=NS(=O)(=O)c2ccccc21)Nc1ccccc1 = 37
• O=C(/C=C/c1ccc(F)cc1)NCCc1ccc2c(c1)OCCO2 = 49.3
